The origin of these recorded values is ChEMBL document CHEMBL4184225.

Experiment: AUClast in C57BL/6 mouse plasma at 1 mg/kg, po administered as single dose
Type: ADME, organism-based
Design: dose 1 mg/kg, time 0 - last, route oral
Endpoint Name: AUC(0-t) (ng·h/mL)
Entry rule: numbers only, all in ng·h/mL.

Inquiry: Identify AUC(0-t) associated with the molecule CCCCNc1nc(N)nc2ccccc12
Reply text: 3

---

# IC50 annotations
Target: Cytochrome P450 1A2 (Homo sapiens)
Sequence (P05177 whole entry): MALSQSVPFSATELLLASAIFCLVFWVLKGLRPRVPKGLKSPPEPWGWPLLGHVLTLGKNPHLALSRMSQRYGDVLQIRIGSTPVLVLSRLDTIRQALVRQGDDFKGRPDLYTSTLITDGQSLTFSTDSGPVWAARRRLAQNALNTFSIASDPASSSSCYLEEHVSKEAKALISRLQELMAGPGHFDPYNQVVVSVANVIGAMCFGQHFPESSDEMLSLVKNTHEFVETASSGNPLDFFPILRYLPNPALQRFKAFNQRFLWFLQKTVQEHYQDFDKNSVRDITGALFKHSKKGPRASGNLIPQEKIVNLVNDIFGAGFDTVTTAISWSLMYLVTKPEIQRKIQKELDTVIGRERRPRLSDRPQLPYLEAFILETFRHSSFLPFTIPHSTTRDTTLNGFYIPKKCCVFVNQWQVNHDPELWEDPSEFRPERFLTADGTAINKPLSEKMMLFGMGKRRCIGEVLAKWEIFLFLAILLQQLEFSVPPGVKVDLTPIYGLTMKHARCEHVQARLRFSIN
Entry rule: numbers only, all in µM.

# Structure String, Assay Target, Measurement Units, Recorded Value
measured = [
    ("CCCCNc1nc(N)nc2cccc(OCc3ccccn3)c12", "Cytochrome P450 1A2 (Homo sapiens)", "µM", 1.3),
    ("CCCCNc1nc(N)nc2cccc(OCc3ccccc3)c12", "Cytochrome P450 1A2 (Homo sapiens)", "µM", 0.3),
    ("CCCCNc1nc(N)nc2cccc(OCc3nccc(OC)c3OC)c12", "Cytochrome P450 1A2 (Homo sapiens)", "µM", 4.1),
    ("CCCCNc1nc(N)nc2cccc(OCc3ccccc3OC)c12", "Cytochrome P450 1A2 (Homo sapiens)", "µM", 2.9),
]

Now look at this one.
Inquiry: Identify IC50 associated with the molecule CCCCNc1nc(N)nc2cccc(OCc3cccnc3)c12
Reply text: 0.9
